Test system: Measles morbillivirus
experiment_notes: Antiviral activity against Measles virus Alaska infected african green monkey Vero cells expressing human SLAM assessed as decrease in viral titer at EC50 of cytopathic inhibition
Type: functional, organism-based
measurement_label: pEC50
Quick note: pEC50 values are minus log10 of concentrations in mol/L.

Consider the following illustrative entries.
Query: Identify pEC50 associated with the compound Cn1nc(C(F)(F)F)cc1C(=O)Nc1ccc(S(=O)(=O)N2CCCC[C@H]2CCN2CCOCC2)cc1
Response: 7.22

Query: Identify pEC50 associated with the compound Cn1nc(C(F)(F)F)cc1C(=O)Nc1ccc(S(=O)(=O)N2CCCCC2CCO)cc1 (stereo not drawn)
Response: 7.00

Turning to the following compound.
Query: Identify pEC50 associated with the compound Cn1nc(C(F)(F)F)cc1C(=O)Nc1ccc(S(=O)(=O)c2ccccc2)cc1
Response: 7.05

###

experiment_notes: Half life in Sprague-Dawley rat at 10 mg/kg, po
Assay type: ADME, organism-based
Set-up: dose 10 mg/kg, route oral
condition_details: in vivo
measurement_label: half-life (h)
Provide the reading as a plain figure in h.

Query: Identify half-life associated with the compound Cn1nc(C(F)(F)F)cc1C(=O)Nc1ccc(S(=O)(=O)N2CCCC[C@H]2CCN2CCOCC2)cc1
Response: 2.2

###

experiment_notes: AUC (0 to t) in Sprague-Dawley rat at 10 mg/kg, po
Assay type: ADME, organism-based
Set-up: dose 10 mg/kg, route oral
condition_details: plasma
measurement_label: AUC(0-t) (ng·h/mL)
Provide the reading as a plain figure in ng·h/mL.

Query: Identify AUC(0-t) associated with the molecule Cn1nc(C(F)(F)F)cc1C(=O)Nc1ccc(S(=O)(=O)N2CCCC[C@H]2CCN2CCOCC2)cc1
Response: 683

###

experiment_notes: AUC (0 to infinity) in Sprague-Dawley rat at 50 mg/kg, po
Assay type: ADME, organism-based
Set-up: time infinity, dose 50 mg/kg, route oral
condition_details: plasma
measurement_label: AUC(0-inf)
Form field: result (number plus unit)

Query: Identify AUC(0-inf) associated with the molecule Cn1nc(C(F)(F)F)cc1C(=O)Nc1ccc(S(=O)(=O)N2CCCC[C@H]2CCN2CCOCC2)cc1
Response: 7860 ng·h/mL

###

experiment_notes: AUC (0 to t) in Sprague-Dawley rat at 50 mg/kg, po
Assay type: ADME, organism-based
Parameters: dose 50 mg/kg, route oral
condition_details: plasma
measurement_label: AUC(0-t) (ng·h/mL)
Provide the reading as a plain figure in ng·h/mL.

Query: Identify AUC(0-t) associated with the molecule Cn1nc(C(F)(F)F)cc1C(=O)Nc1ccc(S(=O)(=O)N2CCCC[C@H]2CCN2CCOCC2)cc1
Response: 3520

###

System: Measles morbillivirus
experiment_notes: Antiviral activity against Measles virus Alaska infected african green monkey Vero cells expressing human SLAM assessed as decrease in virus-induced cytopathic effect
Assay type: functional, organism-based
measurement_label: EC50

Query: Identify EC50 associated with the compound C=Cc1ccccc1S(=O)(=O)c1ccc(NC(=O)c2cc(C(F)(F)F)nn2C)cc1
Response: > 50 µM

Query: Identify EC50 associated with the compound Cn1nc(C(F)(F)F)cc1C(=O)Nc1ccc(S(=O)(=O)c2ccccc2CN2CCOCC2)cc1
Response: > 75 µM

Turning to the following compound.
Query: Identify EC50 associated with the compound CN(C)CC1CCCCN1S(=O)(=O)c1ccc(NC(=O)c2cc(C(F)(F)F)nn2C)cc1 (stereo not drawn)
Response: > 150 µM

Attribution: ChEMBL document CHEMBL2057114
